Reported values of Oxidation Potential (anodic peak) for individual entries
assay: Cyclic voltammetry (CV) screening of oxidation potentials; format: physicochemical; settings: glassy carbon working electrode, 0.2 M lithium perchlorate

Reference set (5 entries):
Lookup: # lookup: Oxidation Potential (anodic peak) of NC(=O)[C@@H](N)Cc1c[nH]c2ccccc12 [L-Trpamide, Tryptophanamide]
Found: 1.015 V vs Ag/AgCl

Lookup: Would you kindly repeat that for `COc1ccc2[nH]cc(CCNC(C)=O)c2c1` ?
Found: 0.730 V vs Ag/AgCl

Lookup: Would you kindly repeat that for `CC(=O)N[C@@H](Cc1c[nH]c2ccccc12)C(=O)O` ?
Found: 0.875 V vs Ag/AgCl

Lookup: Would you kindly repeat that for `N[C@@H](Cc1c[nH]c2ccccc12)C(=O)O` ?
Found: 0.938 V vs Ag/AgCl

Lookup: Would you kindly repeat that for Oc1ccc2[nH]ccc2c1 [5-Hydroxyindole, 5-Hydroxy Indole] ?
Found: 0.580 V vs Ag/AgCl

Others:
Lookup: # lookup: Oxidation Potential (anodic peak) of Nc1ccccc1C(=O)CC(N)C(=O)O (centres unmarked)
Found: 1.040 V vs Ag/AgCl

Lookup: Would you kindly repeat that for NCCc1c[nH]c2ccc(O)cc12 [Serotonin (5-Hydroxytryptamine), 5-hydroxytryptamine] ?
Found: 0.600 V vs Ag/AgCl

Lookup: Would you kindly repeat that for `O=C(O)c1ccccc1O` ?
Found: 1.080 V vs Ag/AgCl

Taken from patent US10653779B2.
